- Species: Homo sapiens
- Experiment Summary: To identify inhibition of the IFN signalling (Jak-Stat) pathway via expression of an eGFP reporter gene under the control of an IFN-stimulated response element (ISRE) containing MxA promoter.
- Type: functional
- Design: scale not given: direction of the effect not stated beside the values
- Protocol Conditions: 30 µM

Compound	Percent Effect, %
Cc1ccc(CNS(=O)(=O)CC2=NC(=O)n3cccc3C2=O)cc1	-19.8
Cc1cc(CN2CCC(CNC(=O)c3ccc(O)c(Cl)c3)C2)[nH]n1 (stereo not drawn)	4.66
Cc1nc(C2CCCN2Cc2nnc(C3CC3)o2)no1 (stereo not drawn)	16.6

====

- Test Target: Proteasome subunit beta (Trypanosoma cruzi) (UniProt O96673)
- Sequence (O96673 as listed by the source): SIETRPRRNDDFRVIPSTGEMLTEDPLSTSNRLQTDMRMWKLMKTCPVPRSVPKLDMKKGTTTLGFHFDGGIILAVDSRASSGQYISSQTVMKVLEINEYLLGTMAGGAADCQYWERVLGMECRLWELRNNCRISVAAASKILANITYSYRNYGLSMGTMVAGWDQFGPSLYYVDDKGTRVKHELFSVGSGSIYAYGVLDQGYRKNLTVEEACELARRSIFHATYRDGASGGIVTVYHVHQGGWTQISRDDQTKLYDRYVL
- Experiment Summary: Trypanosoma cruzi proteasome chymotrypsin-like activity (TcProtChymo) assay. Note: in the data most compounds retested in dose-response had high values.
- Assay type: functional
- Design: scale not given: direction of the effect not stated beside the values
- Protocol Conditions: 9.37 µM

Compound	Test Target	Units Label	Percent Effect
Cc1nc(Nc2nnc(C)s2)cc(C2CCCN2C)n1 (stereo not given)	Proteasome subunit beta (Trypanosoma cruzi) (UniProt O96673)	%	15.1
O=C(CCc1ccsc1)N1CCC(Cc2ccc(CO)cc2)C1 (stereo not given)	Proteasome subunit beta (Trypanosoma cruzi) (UniProt O96673)	%	12.5
COc1ncccc1NC(=O)C1CC(=O)N(Cc2ccccn2)C1 (stereo not given)	Proteasome subunit beta (Trypanosoma cruzi) (UniProt O96673)	%	22.3
CC(C)(C)c1nnc(CN2CCCC(c3cc(C(N)=O)[nH]n3)C2)o1 (stereo not given)	Proteasome subunit beta (Trypanosoma cruzi) (UniProt O96673)	%	3.78
Cc1nc(C)n(CC2CCCN2CCCOc2ccc(F)cc2)n1 (stereo not given)	Proteasome subunit beta (Trypanosoma cruzi) (UniProt O96673)	%	8.93
O=C(CCO)N1CCOC2(CCCN(C(=O)c3ccco3)C2)C1 (stereo not given)	Proteasome subunit beta (Trypanosoma cruzi) (UniProt O96673)	%	11.3
O=C(Cc1ccc(F)cc1)N1CCCCC1c1ccn2ccnc2n1 (stereo not given)	Proteasome subunit beta (Trypanosoma cruzi) (UniProt O96673)	%	9.83
COc1ccc(C(C)=O)c(OCC(=O)NC(C)c2ccc(F)cc2)c1 (stereo not given)	Proteasome subunit beta (Trypanosoma cruzi) (UniProt O96673)	%	9.19
O=C(NCCNc1ncccn1)C1CCN(c2ncccn2)CC1	Proteasome subunit beta (Trypanosoma cruzi) (UniProt O96673)	%	5.57
CC1CCCCN1c1nc2c(c(=O)[nH]1)CCN(Cc1cccnc1)C2 (stereo not given)	Proteasome subunit beta (Trypanosoma cruzi) (UniProt O96673)	%	9.36
CNC(=O)[C@H]1C[C@H]2OCC[C@H]2N(Cc2cccc3ccccc23)C1	Proteasome subunit beta (Trypanosoma cruzi) (UniProt O96673)	%	8.01
COC(=O)C(NC(=O)c1ccco1)c1cc(F)ccc1F (stereo not given)	Proteasome subunit beta (Trypanosoma cruzi) (UniProt O96673)	%	9.46
Cc1nn(C)c(N2CCOCC2)c1CNC1CCc2ccccc2C1 (stereo not given)	Proteasome subunit beta (Trypanosoma cruzi) (UniProt O96673)	%	-2.87
CCCC(=O)N1CCC(O)(Cn2c(CC)nc3ccccc3c2=O)CC1	Proteasome subunit beta (Trypanosoma cruzi) (UniProt O96673)	%	9.2
Clc1ccc2oc(C3CCN(Cc4cccnc4)CC3)nc2c1	Proteasome subunit beta (Trypanosoma cruzi) (UniProt O96673)	%	15.5
CCc1noc(CN2CCN(C(=O)N(C)C)CC2)n1	Proteasome subunit beta (Trypanosoma cruzi) (UniProt O96673)	%	4.83
Cc1ccc(N2CC3(COCCN(Cc4nccs4)C3)OCC2=O)s1 (stereo not given)	Proteasome subunit beta (Trypanosoma cruzi) (UniProt O96673)	%	17.8
O=C(Nc1cc(F)ccc1OCC1CCCO1)c1ccc(O)nc1 (stereo not given)	Proteasome subunit beta (Trypanosoma cruzi) (UniProt O96673)	%	11.4
COc1cc(N2C[C@H]3OCC[C@H]3[C@H](C(=O)NC3CC3)C2)ncn1	Proteasome subunit beta (Trypanosoma cruzi) (UniProt O96673)	%	6.93
Cc1nc(C)n(CC2CCCN2Cc2cc(C)on2)n1 (stereo not given)	Proteasome subunit beta (Trypanosoma cruzi) (UniProt O96673)	%	12.2
CC(=O)N1CCn2cc(CNC(=O)c3cccn3C)nc2C1	Proteasome subunit beta (Trypanosoma cruzi) (UniProt O96673)	%	2.2
Cc1ccccc1-c1cc(C(=O)N2CCn3c(C)nnc3C2)[nH]n1	Proteasome subunit beta (Trypanosoma cruzi) (UniProt O96673)	%	4.34
COCc1n[nH]/c(=N/C(=O)COc2cnc(C)cc2O)s1	Proteasome subunit beta (Trypanosoma cruzi) (UniProt O96673)	%	9.3
Cc1ccc(C)c(NC(=O)c2n[nH]c(-n3cnnc3)n2)c1	Proteasome subunit beta (Trypanosoma cruzi) (UniProt O96673)	%	9.24
COCCOCC(=O)Nc1ccc(Br)cc1F	Proteasome subunit beta (Trypanosoma cruzi) (UniProt O96673)	%	1.63
CCCc1nc(CN2CCN(CC(O)c3ccccc3)CC2)no1 (stereo not given)	Proteasome subunit beta (Trypanosoma cruzi) (UniProt O96673)	%	8.23
CCc1nc(CN2CCCN(Cc3cnn(C)c3)CC2)no1	Proteasome subunit beta (Trypanosoma cruzi) (UniProt O96673)	%	17.2
Cc1nccn1CCC1CCCCN1Cc1ccncc1 (stereo not given)	Proteasome subunit beta (Trypanosoma cruzi) (UniProt O96673)	%	13.8
CCOC(=O)NC(C(=O)NCc1ccc(N2CCCCC2)nc1)C(C)C (stereo not given)	Proteasome subunit beta (Trypanosoma cruzi) (UniProt O96673)	%	13.9
Cn1cnnc1C1CCCN(C(=O)c2ccc3c(c2)OCCCO3)C1 (stereo not given)	Proteasome subunit beta (Trypanosoma cruzi) (UniProt O96673)	%	15.3
Cc1nn(C)c(N2CCOCC2)c1CNC(C)c1ccco1 (stereo not given)	Proteasome subunit beta (Trypanosoma cruzi) (UniProt O96673)	%	13.9
Cc1ccc(C(=O)N2CC[C@@H]3[C@H]2CCC(=O)N3c2ccccc2)o1	Proteasome subunit beta (Trypanosoma cruzi) (UniProt O96673)	%	-2.03
COc1ccc(C(=O)Nc2cnn(CC(=O)NC3CCCC3)c2)c(O)c1	Proteasome subunit beta (Trypanosoma cruzi) (UniProt O96673)	%	9.16
COc1cccc(CN(C)C(=O)CN2CCN(CCO)CC2)c1	Proteasome subunit beta (Trypanosoma cruzi) (UniProt O96673)	%	24.6
Cc1c(C(=O)NCC(C)C)nnn1-c1cccc2c1CCN(C)C2	Proteasome subunit beta (Trypanosoma cruzi) (UniProt O96673)	%	11.2

====

- Test Target: Chromo domain-containing protein 1 (Saccharomyces cerevisiae (strain ATCC 204508 / S288c) (Baker's yeast)) (UniProt P32657)
- Sequence (P32657 whole entry, the tested form may be a part): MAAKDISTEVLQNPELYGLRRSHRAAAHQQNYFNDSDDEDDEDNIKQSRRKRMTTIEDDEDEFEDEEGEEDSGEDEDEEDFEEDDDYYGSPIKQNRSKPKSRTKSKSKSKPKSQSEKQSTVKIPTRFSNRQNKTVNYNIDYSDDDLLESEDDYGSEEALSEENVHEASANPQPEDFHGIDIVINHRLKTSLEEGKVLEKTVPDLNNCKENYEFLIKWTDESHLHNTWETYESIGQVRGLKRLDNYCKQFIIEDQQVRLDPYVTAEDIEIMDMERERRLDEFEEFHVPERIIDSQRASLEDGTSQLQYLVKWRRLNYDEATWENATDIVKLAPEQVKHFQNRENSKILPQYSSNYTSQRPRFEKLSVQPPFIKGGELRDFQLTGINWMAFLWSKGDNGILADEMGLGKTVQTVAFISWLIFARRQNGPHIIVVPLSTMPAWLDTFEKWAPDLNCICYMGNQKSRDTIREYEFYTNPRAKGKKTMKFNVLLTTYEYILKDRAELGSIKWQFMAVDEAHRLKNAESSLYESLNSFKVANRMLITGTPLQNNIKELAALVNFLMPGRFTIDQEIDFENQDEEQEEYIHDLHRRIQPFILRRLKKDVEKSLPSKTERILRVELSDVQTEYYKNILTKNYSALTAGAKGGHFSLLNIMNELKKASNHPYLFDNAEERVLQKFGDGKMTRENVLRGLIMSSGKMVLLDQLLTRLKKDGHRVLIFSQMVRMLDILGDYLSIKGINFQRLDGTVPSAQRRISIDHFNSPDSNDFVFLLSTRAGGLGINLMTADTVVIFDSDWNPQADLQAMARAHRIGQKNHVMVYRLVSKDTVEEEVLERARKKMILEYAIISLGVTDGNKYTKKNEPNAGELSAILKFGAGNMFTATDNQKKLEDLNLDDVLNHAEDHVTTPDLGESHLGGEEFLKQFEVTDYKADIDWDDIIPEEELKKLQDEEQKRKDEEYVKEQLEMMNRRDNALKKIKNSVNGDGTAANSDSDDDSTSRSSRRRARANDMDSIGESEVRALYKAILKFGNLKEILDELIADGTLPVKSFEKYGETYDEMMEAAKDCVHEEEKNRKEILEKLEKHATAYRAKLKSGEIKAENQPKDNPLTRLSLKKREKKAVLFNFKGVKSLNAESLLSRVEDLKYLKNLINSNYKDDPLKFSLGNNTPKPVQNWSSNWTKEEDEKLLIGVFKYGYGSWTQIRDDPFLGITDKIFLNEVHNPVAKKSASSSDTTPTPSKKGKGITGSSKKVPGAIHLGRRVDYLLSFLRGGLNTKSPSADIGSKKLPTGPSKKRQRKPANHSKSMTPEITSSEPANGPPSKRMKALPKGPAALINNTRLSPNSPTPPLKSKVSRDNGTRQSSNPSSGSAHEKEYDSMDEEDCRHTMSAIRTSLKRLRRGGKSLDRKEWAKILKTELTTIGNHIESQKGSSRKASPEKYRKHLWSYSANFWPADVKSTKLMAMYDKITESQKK
- Experiment Summary: ScCHD-1 Enzyme Inhibition Assay; note: in the data most compounds retested in dose-response had high values
- Format: functional
- Design: scale not given: direction of the effect not stated beside the values
- Protocol Conditions: 30 µM

Compound	Percent Effect (%)
COC(C(=O)N1CCCN(Cc2cscn2)CC1)c1ccccc1 (stereo not given)	-9.91
CC(=O)N(C)c1nc(CN2CCOC(Cn3cc(C)cn3)C2)cs1 (stereo not given)	-22.3
CCN1CC2(CCC1=O)CCN(C(=O)c1ccc(Cl)cc1O)CC2	-5.87
Cc1ccc(C2CSCCN2C(=O)C2=CCCC2)o1 (stereo not given)	-2.84
CCCNC(=O)C(C)n1cc(Br)cn1 (stereo not given)	0.506

====

- Test Target: AMP-activated protein kinase, AMPK (Homo sapiens) (UniProt P54646+O43741+P54619+Q9UGJ0+Q9Y478+Q13131+Q9UGI9)
- Experiment Summary: AMP-dependent Kinase enzyme assay. An in vitro enzyme assay that detects ADP turnover that is directly proportional to AMPK activity. This uses naive AMPK that is activated during the assay with MK-8722
- Format: functional
- Set-up: scale not given: direction of the effect not stated beside the values
- Protocol Conditions: 30 µM
Value Type: Percent Effect (%)

Molecule	Value Measured
CCOC(=O)NC(CNC(=O)CCc1ccccn1)CC(C)C (centres undefined)	0.68
CS(=O)(=O)NCC1CCCCN1C(=O)Nc1cccnc1N1CCCC1 (centres undefined)	-38
O=C([C@H]1COC[C@H]2CN(Cc3ccco3)C[C@H]21)N1CCCO1	-1.75
CS(=O)(=O)NC1CCN(C(=O)NCCc2ccccc2F)CC1	-6.29
CC(=O)Nc1ccc(S(=O)(=O)NC(=O)CCC2CCCO2)cc1 (centres undefined)	-16.6
COC(=O)CNC(=O)CSCc1nc(O)c2cc(C(C)C)sc2n1	10.7
O=C(CCC1CCCO1)NCc1ccnc(-n2cccn2)c1 (centres undefined)	2.95
Fc1cnc(N2C[C@H]3CCC[C@@]3(COc3ccccn3)C2)nc1	6.16
Cc1nc(CCN(C)C(=O)C2COc3ccccc3C2)no1 (centres undefined)	-6.34
Cc1nc(CNC(=O)NCC(O)c2cccc(Cl)c2)cs1 (centres undefined)	-4.33
CN1CCN(Cc2ccccc2CNC(=O)c2ccc(Br)cc2F)CC1	-1.3
Cc1cc(=O)n2ncnc2n1CC(O)c1cc(F)ccc1F (centres undefined)	1.21
CC(C)c1nc(C(=O)NCCn2ccnc2)nn1-c1cccc(F)c1	-4.38
CC(=O)N1CCn2cc(CNC(=O)c3cccn3C)nc2C1	8.17
Cc1noc2ncc(C(=O)NCC3CCOC3)cc12 (centres undefined)	-6.17
CN(Cc1cnn(C)c1)C(=O)NCc1csc(Br)c1	10.9
Cc1ccccc1-c1cc(NC(=O)CC(C)C)n(CCO)n1	-11.8
CNC(=O)Cc1ccc(NC(=O)NC(C)C(C)C)cc1 (centres undefined)	3.68
O=S(=O)(NCC1CCOc2ccccc2C1)N1CCOCC1 (centres undefined)	1.72
CCCn1[nH]cc/c1=N\C(=O)CN1CCCC1c1c(C)nn(C)c1C (centres undefined)	-27.7
CC(C)CN1CCC(c2nc3c([nH]2)CC(C)(C)CNC3=O)C1 (centres undefined)	-3.98
COC(=O)Cn1cccc(S(=O)(=O)N2CCC(C)CC2)c1=O	-5.59
Cc1cnn(CC2CCCN2C(=O)c2cn(-c3ccccc3)nc2C)c1 (centres undefined)	-10.7
Cc1nc(C)n(C2CCCN(C(=O)CCCOc3ccccc3)C2)n1 (centres undefined)	6.84
CCC(C)c1noc(C2CCN(C(=O)c3cccnc3)CC2)n1 (centres undefined)	0.731
CCc1noc(C2CCN(C(=O)CCn3nc(C)cc3C)CC2)n1	0.146
Cc1cnn(C2CN(Cc3nc(C(C)(C)C)no3)C2)c1	-7.8
CCC(C)(NCC(=O)N(c1ccccc1)C(C)C)c1nc(C)cs1 (centres undefined)	-12.9
Cc1ccc(CC2CCCN2CC(=O)NCc2cccnc2)cc1 (centres undefined)	5.21
O=C(N1CCCC1)N1CCN(CC2CC2)c2ncccc2C1	8.78
Cn1c(Cn2cccn2)nnc1C1CCCN(c2ccncc2)C1 (centres undefined)	-4
Cc1nnc2n1CCN(CCC(=O)Nc1sccc1C#N)C2	-4.92
COc1ccc(C2C3=C(COC3=O)Nc3[nH]nc(C)c32)cc1OC (centres undefined)	9.48
O=C1NC(c2ccccc2)=N[C@@]12CC[C@@H]1CN(CC3CCOCC3)C[C@@H]12	5.75
CN(Cc1cccc(Cl)c1)S(=O)(=O)N1CCOCC1	6.62
CCc1ncncc1C(=O)N1CCN(Cc2c(C)noc2C)CC1	-4.4
Cn1ccnc1CN1CCN(CC(=O)NCC(F)(F)F)CC1	-5.23
CC1CN(C)CCN1C(=O)c1ccn(-c2cccc(Cl)c2)n1 (centres undefined)	3.41
CC(NC(=O)NCCCc1n[nH]c(N)c1C#N)c1ccccc1 (centres undefined)	48.4
